Assay: Whole blood stability, mouse
Format: in vitro ADME
Details: 30 min
The class of a record is decided solely by its measured Whole Blood Stability % Remaining at 37° C. Mouse; consult band A: < 30%; band B: ≥ 30% and < 80%; band C: ≥ 80%

>>> qualitative_label("[2H]C([2H])([2H])OC(=O)[C@H]1Cc2c([nH]c3ccccc23)[C@H](c2ccc(C(=O)OC)cc2)N1C(=O)CCl [CC]")
"band A"
>>> qualitative_label("COC(=O)c1ccc([C@H]2c3[nH]c4ccc(Br)cc4c3C[C@H](C(=O)OC)N2C(=O)CCl)cc1 [Compound 88]")
"band A"
>>> qualitative_label("CC[C@H]1Cc2c([nH]c3ccccc23)[C@H](c2ccc(N3CCOCC3)cc2)N1C(=O)CCl [Compound 117]")
"band C"
>>> qualitative_label("CN(C)C(=O)[C@H]1Cc2c([nH]c3ccccc23)[C@H](c2ccc(S(=O)(=O)N3CCC(O)CC3)cc2)N1C(=O)CCl [Compound 49]")
"band C"
>>> qualitative_label("COC(=O)[C@H]1Cc2c([nH]c3ccccc23)[C@H](c2ccc(C(=O)N3CCNCC3)cc2)N1C(=O)CCl [Compound 31]")
"band C"
>>> qualitative_label("CC(C)(C)OC(=O)c1ccc([C@H]2c3[nH]c4ccccc4c3C[C@H](C(=O)OC(C)(C)C)N2C(=O)CCl)cc1 [Compound 19]")
"band B"
>>> qualitative_label("COC(=O)[C@H]1Cc2c([nH]c3ccccc23)[C@H](c2ccc(C(=O)O)cc2)N1C(=O)CCl [Compound 4]")
"band B"
>>> qualitative_label("CN(C)C(=O)[C@H]1Cc2c([nH]c3ccccc23)[C@@H](c2ccc([Si](C)(C)C)cc2)N1C(=O)CCl [Compound 67a]")
"band B"
>>> qualitative_label("COC(=O)[C@H]1Cc2c([nH]c3ccccc23)[C@H](c2ccc(C(=O)NCCN)cc2)N1C(=O)CCl [Compound 15]")
"band C"
>>> qualitative_label("CN(C)C(=O)c1ccc([C@H]2c3sc4ccccc4c3C[C@H](C(=O)N(C)C)N2C(=O)CCl)cc1 [Compound 55]")
"band B"
>>> qualitative_label("CN(C)C(=O)[C@H]1Cc2c([nH]c3ccc(Br)cc23)[C@H](c2ccc(C(=O)OC(C)(C)C)cc2)N1C(=O)CCl [Compound 61]")
"band A"
>>> qualitative_label("COC(=O)[C@H]1Cc2c([nH]c3ccccc23)[C@H](c2ccc(S(=O)(=O)N3CCC(O)CC3)cc2)N1C(=O)CCl [Compound 35]")
"band B"
>>> qualitative_label("COC(=O)[C@H]1Cc2c([nH]c3ccccc23)[C@H](c2ccc(OC(C)=O)cc2)N1C(=O)CCl [Compound 12]")
"band A"
>>> qualitative_label("CC(C)OC(=O)[C@H]1Cc2c([nH]c3ccccc23)[C@H](c2ccc(C(=O)OC(C)(C)C)cc2)N1C(=O)CCl [Compound 20]")
"band B"

###

Experiment: Whole blood stability, mouse
Format: in vitro ADME
Conditions: 60 min
Label class 0 if Whole Blood Stability % Remaining at 37° C. Mouse falls below 2%; label class 1 in every other case.

>>> qualitative_label("CC(=O)Nc1ccc([C@H]2c3[nH]c4ccccc4c3C[C@H](C(=O)N(C)C)N2C(=O)CCl)cc1")
"class 1"
>>> qualitative_label("CCC[C@H]1Cc2c([nH]c3ccccc23)[C@H](c2ccc(N3CCOCC3)cc2)N1C(=O)CCl")
"class 0"
>>> qualitative_label("C[C@H]1Cc2c([nH]c3ccc(F)cc23)[C@H](c2ccc(N3CCOCC3)cc2)N1C(=O)CCl")
"class 0"
>>> qualitative_label("COC(=O)[C@H]1Cc2c([nH]c3ccccc23)[C@H](c2ccc(C(=O)OCC3CCCC3)cc2)N1C(=O)CCl")
"class 0"
>>> qualitative_label("[2H]C([2H])(Cl)C(=O)N1[C@@H](c2ccc(C(=O)OC(C)(C)C)cc2)c2[nH]c3ccccc3c2C[C@@H]1C(=O)OC")
"class 1"
>>> qualitative_label("CC[C@H]1Cc2c([nH]c3ccccc23)[C@@H](c2ccc(C(=O)OC)cc2)N1C(=O)CCl")
"class 0"
>>> qualitative_label("COC(=O)[C@H]1Cc2c([nH]c3ccccc23)[C@H](c2ccc(C(=O)NC(C)(C)C)cc2)N1C(=O)CCl")
"class 1"
>>> qualitative_label("C[C@H]1Cc2c([nH]c3ccccc23)[C@H](c2ccc(C3CCCCC3)cc2)N1C(=O)CCl")
"class 1"
>>> qualitative_label("COC(=O)[C@H]1Cc2c([nH]c3ccccc23)[C@H](c2ccc(C(=O)N3CCNCC3)cc2)N1C(=O)CCl")
"class 1"
>>> qualitative_label("COC(=O)[C@H]1Cc2c([nH]c3ccccc23)[C@H](c2ccc(C(=O)NC(C(=O)O)C(C)(C)C)cc2)N1C(=O)CCl (single isomer, unassigned)")
"class 1"
>>> qualitative_label("COC(=O)[C@H]1Cc2c([nH]c3ccccc23)[C@H](c2ccc(OC(=O)C(C)(C)C)cc2)N1C(=O)CCl")
"class 0"
>>> qualitative_label("[2H]C([2H])([2H])OC(=O)[C@H]1Cc2c([nH]c3ccccc23)[C@H](c2ccc(C(=O)OC(C)(C)C)cc2)N1C(=O)CCl")
"class 1"
>>> qualitative_label("COC(=O)c1ccc([C@H]2c3[nH]c4ccc(OC)cc4c3C[C@H](C)N2C(=O)CCl)cc1")
"class 1"
>>> qualitative_label("CN(C)C(=O)[C@H]1Cc2c([nH]c3ccccc23)[C@H](c2ccc(C(=O)N3CCC(O)CC3)cc2)N1C(=O)CCl")
"class 1"
